System: CAKI-1
Assay: NCI tumour cell line growth inhibition, 48 h
Active and inactive are the calls of the source. Rule as the data show it: active = GI50 up to about 1.1 µM and inactive = higher.
Recorded GI50 for the following compounds
METRIC NAME: GI50

>>> measurement("Clc1ccc(-c2c(C3=NCCCN3)nnn2-c2ccc(Cl)cc2)cc1")
"60.1 µM (inactive)"
>>> measurement("CCN/C(=N\\Nc1ccc([N+](=O)[O-])cc1)P(=O)(OC(C)C)OC(C)C")
"> 100 µM (inactive)"
>>> measurement("C=C(C)[C@H]1CC[C@@]2(C)C(C1)[C@H](C)CC[C@@H]2O (stereo not given in full)")
"> 100 µM (inactive)"
>>> measurement("N#CC1(C#N)C(c2ccc(C3C(C#N)(C#N)C3(C#N)C#N)cc2)C1(C#N)C#N")
"> 100 µM (inactive)"
>>> measurement("CCC(=C(C#N)C#N)c1cc(OC)c(OC)c(OC)c1")
"> 100 µM (inactive)"
>>> measurement("COC(=O)/C(=C(/C)c1ccco1)P(=O)(OC)OC")
"> 100 µM (inactive)"
>>> measurement("O=C(c1no[n+]([O-])c1C(=O)c1csc2ccccc12)c1csc2ccccc12")
"0.82 µM (active)"
>>> measurement("CCCCN1C(=O)c2c(-c3sccc3N)sc(-c3sccc3N)c2C1=O")
"23.8 µM (inactive)"
>>> measurement("O/N=C1/C(=C/c2ccc(Cl)cc2)CCCC1C(NO)c1ccc(Cl)cc1 (stereo not given)")
"23.7 µM (inactive)"
>>> measurement("Cc1cc(C)n(C(=O)CSc2nc3ccc(I)cc3c(=O)n2Cc2ccccc2)n1")
"4.63 µM (inactive)"
